Please go through the items and note down their phenotypic distance.
- Tested on: E57 (patient-derived glioblastoma stem cells of mesenchymal subtype)
- assay: phenotypic distance (Euclidean, principal components) from DMSO controls (arbitrary units); higher = stronger morphological change;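 also: cell Painting imaging in 384-well plates, CellProfiler features reduced to at least 20 principal components, Euclidean distance versus same-plate DMSO vehicle wells (0.1% v/v), median over six images per well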
- conditions used: 12.3 nM; exposure time: 72 h
Structures can show the parent of a compound that is named as a salt.

(Q) Which phenotypic distance is reported for this compound? C/C(=C\c1csc(C)n1)[C@@H]1C[C@@H]2O[C@]2(C)CCC[C@H](C)[C@H](O)[C@@H](C)C(=O)C(C)(C)[C@@H](O)CC(=O)N1 [Ixabepilone]
(A) 5.51

(Q) Which phenotypic distance is reported for this compound? "CC(C)(C)C1CCN(C(=O)n2ncc(C(O)(c3ccccc3)c3ccccc3)n2)CC1"
(A) 0.447

(Q) Which phenotypic distance is reported for this compound? "COc1nc(C)nc(Cl)c1NC1=NCCN1"
(A) 0.657

(Q) Which phenotypic distance is reported for this compound? "COC(=O)Nc1nc2cc(Sc3ccccc3)ccc2[nH]1"
(A) 0.484

(Q) Which phenotypic distance is reported for this compound? "COc1ccc([C@@H]2CC(=O)c3c(O)cc(O[C@@H]4O[C@H](CO[C@@H]5O[C@@H](C)[C@H](O)[C@@H](O)[C@H]5O)[C@@H](O)[C@H](O)[C@H]4O)cc3O2)cc1O"
(A) 0.735

(Q) Which phenotypic distance is reported for this compound? NCc1ccccc1CC(=O)N[C@@H]1C(=O)N2C(C(=O)O)=C(CSc3nnnn3CC(=O)O)CS[C@H]12 [Ceforanide]
(A) 0.47

(Q) Which phenotypic distance is reported for this compound? "Nc1nc(Cl)nc2c1ncn2[C@@H]1O[C@H](CO)[C@@H](O)[C@@H]1F"
(A) 1.15

(Q) Which phenotypic distance is reported for this compound? "COc1cc([C@@H]2c3cc4c(cc3[C@H](O)[C@H]3COC(=O)[C@H]23)OCO4)cc(OC)c1OC"
(A) 6.65

(Q) Which phenotypic distance is reported for this compound? CN1C(=O)CC(c2ccccc2)C1=O (stereo not given) [Phensuximide]
(A) 0.516

(Q) Which phenotypic distance is reported for this compound? "Nc1ccc(-c2ccc3ncc4ccc(=O)n(-c5cccc(C(F)(F)F)c5)c4c3c2)cn1"
(A) 1.65

(Q) Which phenotypic distance is reported for this compound? COc1cc(N)c(Cl)cc1C(=O)NC1CCN(CCCOc2ccc(F)cc2)CC1OC (stereo not given) [Cisapride]
(A) 0.606

(Q) Which phenotypic distance is reported for this compound? CCCCCCC[N+](CC)(CC)CCCCc1ccc(Cl)cc1 [Clofilium tosylate]
(A) 0.645

(Q) Which phenotypic distance is reported for this compound? "OC[C@H]1O[C@@H](Oc2ccc(O)cc2)[C@H](O)[C@@H](O)[C@@H]1O"
(A) 0.753

(Q) Which phenotypic distance is reported for this compound? CCCCCC[C@H]1C(=O)O[C@H](C)[C@H](NC(=O)c2cccc(NC=O)c2O)C(=O)O[C@@H](C)[C@@H]1OC(=O)CC(C)C [Antimycin A]
(A) 3.56

(Q) Which phenotypic distance is reported for this compound? COc1cc([C@@H]2c3cc4c(cc3[C@@H](O[C@@H]3O[C@@H]5CO[C@@H](c6cccs6)O[C@H]5[C@H](O)[C@H]3O)[C@H]3COC(=O)[C@H]23)OCO4)cc(OC)c1O [Teniposide]
(A) 4.96

---

- Test system: E21 (patient-derived glioblastoma stem cells of mesenchymal subtype)
- assay: phenotypic distance (Euclidean, principal components) from DMSO controls (arbitrary units); higher = stronger morphological change
- conditions used: 4.1 nM; exposure time: 72 h
Counter-ions that a name gives are not always drawn.
parameter: phenotypic distance
A bare number is all that is needed in reply.

(Q) Which phenotypic distance is reported for this compound? "CC[N+](CC)(CC)CCOc1ccc(/C=C/c2ccccc2)cc1"
(A) 0.724

(Q) Which phenotypic distance is reported for this compound? "Cc1cc(Nc2cc(N3CCN(C)CC3)nc(Sc3ccc(NC(=O)C4CC4)cc3)n2)n[nH]1"
(A) 1.38

(Q) Which phenotypic distance is reported for this compound? NC1CCN(c2nc3c(cc2F)c(=O)c(C(=O)O)cn3-c2ccc(F)cc2F)C1 (stereo unspecified) [Tosufloxacin hydrochloride]
(A) 0.748

(Q) Which phenotypic distance is reported for this compound? CC1(C(=O)O)C2CCC(O2)C1(C)C(=O)O (stereo unspecified)
(A) 0.625

(Q) Which phenotypic distance is reported for this compound? "OC[C@H]1NC[C@H](O)[C@@H](O)[C@@H]1O"
(A) 0.765

(Q) Which phenotypic distance is reported for this compound? CC(C)NCC(O)c1ccc(O)c(O)c1 (stereo unspecified) [Isoproterenol hydrochloride]
(A) 1.03

(Q) Which phenotypic distance is reported for this compound? NCc1ccccc1CC(=O)N[C@@H]1C(=O)N2C(C(=O)O)=C(CSc3nnnn3CC(=O)O)CS[C@H]12 [Ceforanide]
(A) 0.452

(Q) Which phenotypic distance is reported for this compound? "COc1ccc(C(=O)CC(=O)c2ccc(C(C)(C)C)cc2)cc1"
(A) 0.845

(Q) Which phenotypic distance is reported for this compound? "O=C1CC[C@@H](C(=O)N2CSC[C@H]2C(=O)O)N1"
(A) 0.591

(Q) Which phenotypic distance is reported for this compound? "CCN1CCN(C(=O)Cc2ccc(Nc3ncc(F)c(Nc4ccc(C(=O)Nc5ccccc5Cl)cc4)n3)cc2)CC1"
(A) 0.463

(Q) Which phenotypic distance is reported for this compound? "COc1cc2c(c(OC)c1OC)-c1ccc(OC)c(=O)cc1[C@@H](NC(C)=O)CC2"
(A) 5.8

(Q) Which phenotypic distance is reported for this compound? C[C@@H]1C[C@@H]([C@H](O)CC2CC(=O)NC(=O)C2)C(=O)[C@@H](C)C1 [Cycloheximide]
(A) 1.69

(Q) Which phenotypic distance is reported for this compound? "CC(C)C[C@H](NC(=O)[C@H](Cc1ccccc1)C[C@@H](O)[C@H](Cc1ccccc1)NC(=O)OC(C)(C)C)C(=O)N[C@@H](Cc1ccccc1)C(N)=O"
(A) 0.782

(Q) Which phenotypic distance is reported for this compound? CCOC(=O)OC(C)OC1=C(C(=O)Nc2ccccn2)N(C)S(=O)(=O)c2ccccc21 (stereo unspecified)
(A) 0.574

(Q) Which phenotypic distance is reported for this compound? CCCCC1C(=O)N(c2ccccc2)N(c2ccc(O)cc2)C1=O (stereo unspecified)
(A) 0.965

(Q) Which phenotypic distance is reported for this compound? CC[C@H]1CN2CCc3cc(OC)c(OC)cc3[C@@H]2C[C@@H]1C[C@H]1NCCc2cc(OC)c(OC)cc21 [Emetine dihydrochloride hydrate]
(A) 1.08

---

- Tested on: E28 (patient-derived glioblastoma stem cells of classical subtype)
- assay: phenotypic distance (Euclidean, principal components) from DMSO controls (arbitrary units); higher = stronger morphological change
- conditions used: 12.3 nM; exposure time: 72 h
Threshold check on phenotypic distance: at or above 0.7 gives label 1, strictly below gives label 0.

(Q) Please indicate if the recorded phenotypic distance for "CC[n+]1c(/C=C/C=C2/N(C)c3ccccc3C2(C)C)sc2ccccc21" meets or exceeds 0.7.
(A) label 1

(Q) Please indicate if the recorded phenotypic distance for Cc1cccn2c(=O)c(-c3nnn[nH]3)cnc12 [Pemirolast potassium] meets or exceeds 0.7.
(A) label 0

(Q) Please indicate if the recorded phenotypic distance for COC(=O)Nc1nc2cc(Sc3ccccc3)ccc2[nH]1 [Fenbendazole] meets or exceeds 0.7.
(A) label 0

(Q) Please indicate if the recorded phenotypic distance for COc1cccc2c1C(=O)c1c(O)c3c(c(O)c1C2=O)C[C@@](O)(C(=O)CO)C[C@@H]3O[C@H]1C[C@H](N)[C@H](O[C@@H]2CCCCO2)[C@H](C)O1 [Pirarubicin] meets or exceeds 0.7.
(A) label 1

(Q) Please indicate if the recorded phenotypic distance for C#C[C@]1(O)CC[C@H]2[C@@H]3CCC4=CCCC[C@@H]4[C@H]3CC[C@@]21C [Lynestrenol] meets or exceeds 0.7.
(A) label 1

(Q) Please indicate if the recorded phenotypic distance for CC1(C(=O)O)C2CCC(O2)C1(C)C(=O)O (configuration not stated) [Cantharidic Acid] meets or exceeds 0.7.
(A) label 0

---

- System: E57
- assay: phenotypic distance (Euclidean, principal components) from DMSO controls (arbitrary units); higher = stronger morphological change
- conditions used: 3000 nM; exposure time: 72 h
Counter-ions that a name gives are not always drawn.
Each entry falls into one class according to its phenotypic distance; the ranges are low = under 4, medium = from 4 up to 7, high = 7 and over

(Q) Place this compound in its band: c1ccc2c(c1)[I+]c1ccccc1-2 [Diphenyleneiodonium chloride]
(A) high

(Q) Place this compound in its band: "O=c1c2ccccc2[se]n1-c1ccccc1"
(A) medium

(Q) Place this compound in its band: "C/C=C1\NC(=O)[C@H]2CSSCC/C=C/[C@H](CC(=O)N[C@H](C(C)C)C(=O)N2)OC(=O)[C@H](C(C)C)NC1=O"
(A) high

(Q) Place this compound in its band: "OC[C@H]1NC[C@H](O)[C@@H](O)[C@@H]1O"
(A) low

(Q) Place this compound in its band: "C[C@]12CC[C@H](O)C[C@H]1CC[C@@H]1[C@@H]2C[C@@H](O)[C@]2(C)[C@@H](C3=CC(=O)OC3)CC[C@]12O"
(A) medium

(Q) Place this compound in its band: COc1ccc(/C=C\c2cc(OC)c(OC)c(OC)c2)cc1OP(=O)(O)O [Fosbretabulin Disodium]
(A) medium

(Q) Place this compound in its band: CC(C)(Oc1ccc(C2CC2(Cl)Cl)cc1)C(=O)O (centres undefined) [Ciprofibrate]
(A) low

(Q) Place this compound in its band: "CCCSc1ccc2[nH]c(NC(=O)OC)nc2c1"
(A) medium

(Q) Place this compound in its band: O=C(/C=C\n1cnc(-c2cc(C(F)(F)F)cc(C(F)(F)F)c2)n1)NNc1cnccn1 [Selinexor]
(A) medium

(Q) Place this compound in its band: CCCCC(CC)CNC(=N)NC(=N)NCCCCCCNC(=N)NC(=N)NCC(CC)CCCC (centres undefined) [Alexidine dihydrochloride]
(A) high

(Q) Place this compound in its band: COc1cc2nc(N3CCN(C(=O)c4ccco4)CC3)nc(N)c2cc1OC [Prazosin hydrochloride]
(A) low

(Q) Place this compound in its band: CC(C)C(=O)OCC(=O)[C@@]12O[C@H](C3CCCCC3)O[C@@H]1C[C@H]1[C@@H]3CCC4=CC(=O)C=C[C@]4(C)[C@H]3[C@@H](O)C[C@@]12C [Ciclesonide]
(A) low

These entries and their values trace back to the supplement of paper PMC13207355.
